Consider the following binders; for each one, report its Binding Similarity score.
# target_under_test: T1, wildtype feline IL-31 protein (Feline_IL31_wildtype) (feline)
# T1 construct: Full length feline IL-31 with C-terminal His tag, secreted from ExpiCHO cells; also called fIL-31
# T1 chain: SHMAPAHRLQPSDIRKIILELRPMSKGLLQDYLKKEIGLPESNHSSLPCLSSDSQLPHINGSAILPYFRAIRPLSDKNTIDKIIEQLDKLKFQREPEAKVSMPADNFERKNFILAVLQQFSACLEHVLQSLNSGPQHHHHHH
# experimental_details: Biacore, feline IL-31 chip, mAb 100 nM, share of points within parent mean +/-3 SD
# Set-up: key: % of mutant data points within parent mAb mean ±3 SD
# Excerpt: The mean response unit of four replicates of the parent mAb+/−3 standard deviations was used to generate parameters to define a threshold of response units comprising both the on- and off-rates antibody binding (FIG. 22). The percentage of data points for each mutant fell within this threshold was then used to define a “% similarity score” (FIG. 23).

Prompt: Which Binding Similarity score is listed for A44 (antibody, V domains shown) VH: QVLLVQSGAEVRTPGASVKIFCKASGYSFTSYTIHWLRQAPAQGLEWMGNINPTSAYTENNQRFKDRLTLTADTSTNTAYMELSSLRSADTAMYYCARWGFKYDGEWSFDVWGAGTTVTVSS VL: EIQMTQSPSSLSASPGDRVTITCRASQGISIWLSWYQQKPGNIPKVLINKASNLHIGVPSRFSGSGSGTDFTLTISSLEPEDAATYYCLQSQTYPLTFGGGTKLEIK ?
Response: 55.8

Provide Binding Similarity score for all items below, preserving their order.
1. A49 (antibody, V domains shown) VH: QVLLVQSGAEVRTPGASVKIFCKASGYSFTSYTIHWLRQAPAQGLEWMGNINPTSGYTENAQRFKDRLTLTADTSTNTAYMELSSLRSADTAMYYCARWGFKYDGEWSFDVWGAGTTVTVSS VL: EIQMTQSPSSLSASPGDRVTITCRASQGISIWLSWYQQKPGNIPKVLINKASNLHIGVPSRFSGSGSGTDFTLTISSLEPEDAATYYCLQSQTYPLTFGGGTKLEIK
2. A54 (antibody, V domains shown) VH: QVLLVQSGAEVRTPGASVKIFCKASGYSFTSYTIHWLRQAPAQGLEWMGNINPTSGYTENNQRFKDRLTLTADTSTNTAYMELSSLRSADTAMYYCARWGAKYDGEWSFDVWGAGTTVTVSS VL: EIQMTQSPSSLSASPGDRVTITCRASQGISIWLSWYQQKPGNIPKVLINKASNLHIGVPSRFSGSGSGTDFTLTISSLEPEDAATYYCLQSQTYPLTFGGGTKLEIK

Response:
1. 37
2. 17.6

meta.source: patent US20250136677A1
